System: UniProt P15907
Sequence (P15907 whole entry): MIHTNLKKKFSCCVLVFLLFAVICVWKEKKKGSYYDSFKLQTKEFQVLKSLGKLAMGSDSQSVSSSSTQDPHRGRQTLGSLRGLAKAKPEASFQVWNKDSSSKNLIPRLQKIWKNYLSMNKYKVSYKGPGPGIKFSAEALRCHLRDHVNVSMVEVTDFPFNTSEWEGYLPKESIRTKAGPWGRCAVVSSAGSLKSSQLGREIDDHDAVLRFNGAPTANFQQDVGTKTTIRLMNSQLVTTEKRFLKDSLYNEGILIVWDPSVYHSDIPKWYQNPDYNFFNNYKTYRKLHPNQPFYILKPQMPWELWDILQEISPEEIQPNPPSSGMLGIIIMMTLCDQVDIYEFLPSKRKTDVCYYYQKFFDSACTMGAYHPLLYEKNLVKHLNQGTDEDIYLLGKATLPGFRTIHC
Assay Overview: Inhibition of recombinant human N-terminal 6His-tagged ST6Gal-1 (Glu44 to Cys406 residues) assessed as CMP production at 10 uM using CMP-Neu5Ac as donar substrate and LacNAc as acceptor by CMP-Glo luminescence microplate reader assay relative to control
Readout Label: inhibition (%)
One number for each entry, in %.

Solved cases below.
- O=C(NC[C@H]1O[C@@H](n2ccc(=O)[nH]c2=O)[C@H](O)[C@@H]1O)OC(c1ccc(F)cc1)P(=O)(O)O (stereo in doubt; 28c-(s)): 34.6
- COc1ccc(C(OC(=O)NC[C@H]2O[C@@H](n3ccc(=O)[nH]c3=O)[C@H](O)[C@@H]2O)P(=O)(O)O)cc1 (stereo in doubt; 28g-(l)): 7.1

For every listed record, write down its inhibition.
1. O=C(NC[C@H]1O[C@@H](n2ccc(=O)[nH]c2=O)[C@H](O)[C@@H]1O)OC(c1cccc(F)c1)P(=O)(O)O (stereo in doubt; 28d-(s))
2. COc1cccc(C(OC(=O)NC[C@H]2O[C@@H](n3ccc(=O)[nH]c3=O)[C@H](O)[C@@H]2O)P(=O)(O)O)c1 (stereo in doubt; 28f-(s))
3. CCCOc1cccc(C(OC(=O)NC[C@H]2O[C@@H](n3ccc(=O)[nH]c3=O)[C@H](O)[C@@H]2O)P(=O)(O)O)c1 (stereo in doubt; 28e-(l))
4. O=C(NC[C@H]1O[C@@H](n2ccc(=O)[nH]c2=O)[C@H](O)[C@@H]1O)OC(c1cccc(F)c1)P(=O)(O)O (stereo in doubt; 28d-(l))

output:
1. 36.6
2. 29.8
3. 30.9
4. 18
